# TESTED SYSTEM: D(2) dopamine receptor (Rattus norvegicus)
# Sequence (P61169 whole entry): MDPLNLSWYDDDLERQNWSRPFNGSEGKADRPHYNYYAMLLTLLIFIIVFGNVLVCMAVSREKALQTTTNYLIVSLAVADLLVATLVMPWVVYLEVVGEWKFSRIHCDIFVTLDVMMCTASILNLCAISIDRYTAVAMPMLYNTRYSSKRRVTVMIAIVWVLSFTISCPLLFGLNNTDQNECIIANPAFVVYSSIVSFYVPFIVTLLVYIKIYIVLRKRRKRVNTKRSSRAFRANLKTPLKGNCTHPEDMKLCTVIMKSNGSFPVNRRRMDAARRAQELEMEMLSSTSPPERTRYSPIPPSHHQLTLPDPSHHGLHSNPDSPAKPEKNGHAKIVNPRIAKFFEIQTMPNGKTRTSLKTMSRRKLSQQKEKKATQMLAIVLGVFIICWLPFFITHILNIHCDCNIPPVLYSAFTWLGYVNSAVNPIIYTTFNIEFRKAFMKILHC
# TEST DESCRIPTION: Displacement of [3H]spiperone from dopamine D2 receptor in rat brain
What pKi was measured for each of the following?
By convention, pKi is the negative base-10 log of a molar concentration.

For O=C(CCCN1CCN2Cc3[nH]c4ccccc4c3CC2C1)c1ccc(F)cc1 (centres undefined) [BIRIPERONE] , what is its reported pKi? 7.88

Requested field: pKi. Item: O=C(CCCN1CCN2CC3Nc4ccccc4C3CC2C1)c1ccc(F)cc1 (centres undefined) 7.03

# get_value(readout='pKi', item= O=C(CCCN1CCN2CC3C(CC2C1)c1ccccc1N3CCCC(=O)c1ccc(F)cc1)c1ccc(F)cc1 (centres undefined) ) 5.65
